target: T1, histidine-tagged human SIRPA v1 (Novoprotein) (human, UniProt P78324 31-370, limits assumed); test: BLI (Octet), antibody on anti-human IgG Fc sensor, His-huSIRPA in solution, single-curve 1:1 fit
T1 construct: bought, soluble; also called huSIRPA; soluble huSIRPA; not shown: histidine tag
T1 sequence (P78324 31-370 limits assumed): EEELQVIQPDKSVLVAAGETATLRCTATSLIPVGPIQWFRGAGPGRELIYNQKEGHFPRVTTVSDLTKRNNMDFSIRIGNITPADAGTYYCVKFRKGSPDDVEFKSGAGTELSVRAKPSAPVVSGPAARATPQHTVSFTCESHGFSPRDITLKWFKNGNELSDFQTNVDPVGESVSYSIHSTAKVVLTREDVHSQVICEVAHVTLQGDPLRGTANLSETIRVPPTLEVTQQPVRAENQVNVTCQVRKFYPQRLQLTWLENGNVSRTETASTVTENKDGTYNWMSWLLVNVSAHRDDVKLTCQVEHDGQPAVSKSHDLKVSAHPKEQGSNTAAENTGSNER
property-name: koff
Kindly write the number and append the unit.

Quick note, koff for 3F9-9 (antibody, human IgG1, V domains shown, also called mAb 3F9-9) VH: EVQLLESGGGLVQPGGSLRLSCAASGFTFSSYAMSWVRQAPGKGLEWVATISEYGGSYTYYAESVKGRFTISRDNSKNTLYLQMNSLRAEDTAVYYCARPPYDDYYGGFAYWGQGTLVTVSS VL: DIQLTQSPSSLSASVGDRVTITCRASKSVSSGGYSYMHWYQQKPGKAPKLLIYLASNLESGVPSRFSGSGSGTDFTLTISSVQPEDFATYYCQHNRELPWTFGQGTKLEIK landed at 0.000302 s⁻¹

Record summary for 3F9-19 (antibody, human IgG1, V domains shown, also called mAb 3F9-19) VH: EVQLLESGGGLVQPGGSLRLSCAASGFTFSSYAMSWVRQAPGKGLEWVATISEYGGSYTYYAESVKGRFTISRDNSKNTLYLQMNSLRAEDTAVYYCARPPYDDYYGGFQYWGQGTLVTVSS VL: DIQLTQSPSSLSASVGDRVTITCRASKSVSSGGYSYMHWYQQKPGKAPKLLIYLASNLESGVPSRFSGSGSGTDFTLTISSVQPEDFATYYCQHNRELPITFGQGTKLEIK : reported koff = 0.000181 s⁻¹

Recorded result, 3F9-6 (antibody, human IgG1, V domains shown, also called mAb 3F9-6) VH: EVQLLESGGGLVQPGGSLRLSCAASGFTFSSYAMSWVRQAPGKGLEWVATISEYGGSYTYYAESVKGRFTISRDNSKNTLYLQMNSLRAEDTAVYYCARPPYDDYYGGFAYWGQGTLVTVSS VL: DIQLTQSPSSLSASVGDRVTITCRASKSVSSGGYSYMHWYQQKPGKAPKLLIYLASNLESGVPSRFSGSGSGTDFTLTISSVQPEDFATYYCQHNRELPVTFGQGTKLEIK , koff: 0.000192 s⁻¹

Notebook: 3F9-21 (antibody, human IgG1, V domains shown, also called mAb 3F9-21) VH: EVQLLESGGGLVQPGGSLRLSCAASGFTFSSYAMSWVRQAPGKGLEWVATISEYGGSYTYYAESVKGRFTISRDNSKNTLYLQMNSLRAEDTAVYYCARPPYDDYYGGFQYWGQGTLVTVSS VL: DIQLTQSPSSLSASVGDRVTITCRASKSVSSGGYSYMHWYQQKPGKAPKLLIYLASNLESGVPSRFSGSGSGTDFTLTISSVQPEDFATYYCQHNRELPTTFGQGTKLEIK , koff read as 0.000152 s⁻¹

// sample 3F9-18 (antibody, human IgG1, V domains shown, also called mAb 3F9-18) VH: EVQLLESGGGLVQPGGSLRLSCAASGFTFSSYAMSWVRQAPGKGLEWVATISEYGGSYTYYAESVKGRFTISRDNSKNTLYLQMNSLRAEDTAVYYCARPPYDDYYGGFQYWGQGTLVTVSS VL: DIQLTQSPSSLSASVGDRVTITCRASKSVSSGGYSYMHWYQQKPGKAPKLLIYLASNLESGVPSRFSGSGSGTDFTLTISSVQPEDFATYYCQHNRELPSTFGQGTKLEIK , its koff was 5.74e-05 s⁻¹

Lab book: koff of 3F9-3 (antibody, human IgG1, V domains shown, also called mAb 3F9-3) VH: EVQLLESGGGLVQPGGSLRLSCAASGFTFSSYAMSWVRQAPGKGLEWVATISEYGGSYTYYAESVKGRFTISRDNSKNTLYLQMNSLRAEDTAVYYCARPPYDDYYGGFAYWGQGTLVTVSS VL: DIQLTQSPSSLSASVGDRVTITCRASKSVSSGGYSYMHWYQQKPGKAPKLLIYLASNLESGVPSRFSGSGSGTDFTLTISSVQPEDFATYYCQHNRELPITFGQGTKLEIK noted as 0.000416 s⁻¹
